Listing of recorded melting point by entry.

Reference set, count: 2
{"columns": ["molecule", "result type", "endpoint result"],
 "data": [
  ["COc1ccccc1-c1oc2cccc3c2c1C=CC3=O", "melting point", "144 °C"],
  ["CCn1c2ccccc2c2cc(NC(=O)c3c(C)cccc3C)ccc21", "melting point", "192 to 193 °C"]
]}

Fill blank: measured melting point of the molecule `CCOC(=O)CCCCCCCn1c(C)nc(-c2ccccc2)c1-c1ccccc1` is ____.
135 to 136 °C

Next molecule: CCC(CN1C(=O)c2ccccc2C1=O)n1cnc(-c2cccnc2)c1 (configuration not stated)
150 to 152 °C

Next molecule: `O=C1CC2(CCCC2)CC(=O)N1CCCCN1CCN(c2noc3cc(Cl)ccc23)CC1`
128 °C

Next molecule: `CCN(CCO)CCCC1CCN(S(=O)(=O)c2ccc(C(F)(F)F)cc2)CC1`
71.3 to 72.7 °C

Next molecule: CC(CCC(=O)O)C1CCC2C3=CC=C4C(C)(C)C(O)CCC4(C)C3CCC21C (configuration not stated)
210 to 213 °C

Next molecule: `O=C(O)c1c(O)c(-c2ccc(-c3ccccc3)cc2)nc2c(Cl)cc(Cl)cc12`
215 to 217 °C

Next molecule: `O=C(O)C1=Nc2ccc3c(c2=C1)=CCO3`
183 to 184 °C

Next molecule: `Cc1c(C(=O)O)cccc1S(=O)(=O)CCO`
160 to 165 °C

Next molecule: `Cc1nc2cc(S(=O)(=O)n3c(CCCC(=O)O)cc4cc(C(F)(F)F)ccc43)ccc2s1`
171 to 178 °C

Next molecule: `N#Cc1nc(F)c(F)c(F)c1Cl`
41.5 to 43 °C

Sourced from a melting point compilation (Tetko et al.; mined from patent text by program, amines drawn as free bases though some values may be those of a salt)
